Task for the reader: assign each of the following molecules its reported TGI.
tested on: SF-539 CNS; assay: NCI tumour cell line growth inhibition, 48 h

[ask] Endpoint output: TGI of O=[N+]([O-])c1cccc2nccc(NCCCO)c12 . Value?
[reply] 29.4 µM

[ask] Sample Cc1cc(Nc2cc(N)ncn2)c(=O)n2c1C(=O)NC21CCCCC1 — what was its TGI?
[reply] > 100 µM

[ask] Item under review: OC(CC(O)(C(F)(F)F)C(F)(F)F)c1ccc(C(O)CC(O)(C(F)(F)F)C(F)(F)F)cc1 (stereo unspecified) . Reported TGI?
[reply] 29.4 µM

[ask] Requested read-out: TGI. Entry: Cc1cccc(Cc2cnc(NC(=O)CCc3ccc(C)o3)s2)c1
[reply] 0.642 µM

[ask] For the molecule C/C(=N\NC(=S)N(C)C)c1ccccn1 , what TGI is on record?
[reply] 2.77 µM

[ask] TGI lookup needed for O=C(CC/C(CC(=O)c1ccc(Br)cc1)=N\O)Nc1ccc(Cl)c(Cl)c1 , thanks.
[reply] > 100 µM

[ask] Which TGI value is on record for Nc1ncc(-c2cccc(S(N)(=O)=O)c2)c2scc(-c3ccc(F)c(Cl)c3)c12 ?
[reply] 13.2 µM

[ask] Which TGI value belongs to Cc1c(Cl)cccc1NC(=O)c1sc2nc3c(cc2c1N)CCCCC3 ?
[reply] 9.07 µM

[ask] What does the data say about its TGI? Entry: [N-]=[N+]=C(C(=O)N1CCCC1=O)S(=O)(=O)c1ccccc1
[reply] > 100 µM

[ask] Look up TGI: COc1cc(CS(=O)c2ccc(O)cc2)cc(OC)c1OC (stereo unspecified)
[reply] > 100 µM

[ask] So what does the record say about TGI for NC1CC=C(COC(=O)C(O)(c2ccccc2)C2CC2)CC1 (stereo unspecified) ?
[reply] > 100 µM
